Every entry's value here was drawn from patent US20230151091A1.

Target: T1, mouse MuSK (mouse, UniProt Q61006 22-494, limits assumed)
T1 construct: Coated on ELISA plates or on the Biacore chip; also called full length mouse MuSK; mouse MuSK (in house produced in HEK293 cells)
T1 sequence (looked up): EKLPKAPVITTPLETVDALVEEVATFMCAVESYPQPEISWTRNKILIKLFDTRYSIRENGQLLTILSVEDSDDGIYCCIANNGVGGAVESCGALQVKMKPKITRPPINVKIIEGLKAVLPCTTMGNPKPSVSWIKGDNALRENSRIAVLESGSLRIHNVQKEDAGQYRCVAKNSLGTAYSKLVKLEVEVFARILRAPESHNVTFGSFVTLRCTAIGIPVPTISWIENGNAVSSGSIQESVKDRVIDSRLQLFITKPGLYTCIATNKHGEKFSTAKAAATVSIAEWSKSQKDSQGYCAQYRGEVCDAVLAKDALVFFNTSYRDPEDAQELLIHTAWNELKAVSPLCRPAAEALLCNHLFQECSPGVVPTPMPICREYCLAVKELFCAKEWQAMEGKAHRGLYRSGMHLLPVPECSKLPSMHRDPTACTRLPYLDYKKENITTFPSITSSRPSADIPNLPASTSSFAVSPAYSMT
Assay: Biacore T200, off rate at pH 5.5 against pH 7.4
measured_metric: Ratio pH 5.5/7.4 of off rate
I only need the number, thanks.

Ask | Consider the binder 3B2 Fab (Fab, V domains shown, Fab format; also called Fab 3B2) VH: ELQLVESGGGLVQPGGSLRLSCAASGFTFDDYGMSWVRQAPGKGLEWVSAIPWNGGSTYYKESVKGRFTISRDNAKKTLYLQMNSLKSEDTAVYYCAKRSGRIAFGALDAWGQGTLVTVSS VL: QAVVTQEPSLSVSPGGTVTLTCGLSSGSVTSSNYPDWYQQTPGQAPRGLIYSTDSRHSGVPSRFSGSISGNKAALTITGAQSEDEADYYCGLYMYSGSKNYVFGGGTKLTVL and give its measured Ratio pH 5.5/7.4 of off rate.
Reply | 31.5

Ask | Consider the binder X3 Fab (Fab, V domains shown, Fab format) VH: EVQLVESGGGLVQPGGSLRLSCAASGFTISSSSIHWVRQAPGKGLEWVASISSSSGYTYYADSVKGRFTISADTSKNTAYLQMNSLRAEDTAVYYCARSWYEMWMSGYFGFDYWGQGTLVTVSS VL: DIQMTQSPSSLSASVGDRVTITCRASQSVSSAVAWYQQKPGKAPKLLIYSASSLYSGVPSRFSGSRSGTDFTLTISSLQPEDFATYYCQQSSSSLITFGQGTKVEIK and give its measured Ratio pH 5.5/7.4 of off rate.
Reply | 4.4

Ask | Consider the binder X2m4 Fab (Fab, V domains shown, Fab format) VH: EVQLVESGGGLVQPGGSLRLSCAASGFTVSSSSIHWVRQAPGKGLEWVASISSSYGSTSYADSVKGRFTISADTSKNTAYLQMNSLRAEDTAVYYCARSEGDRYVSGYSGLDYWGQGTLVTVSS VL: DIQMTQSPSSLSASVGDRVTITCRASQSVSSAVAWYQQKPGKAPKLLIYSASSLYSGVPSRFSGSRSGTDFTLTISSLQPEDFATYYCQQSGVWLITFGQGTKVEIK and give its measured Ratio pH 5.5/7.4 of off rate.
Reply | 1.2

Ask | Consider the binder X9 Fab (Fab, V domains shown, Fab format) VH: EVQLVESGGGLVQPGGSLRLSCAASGFTFSSSSIHWVRQAPGKGLEWVASIYSSSGSTYYADSVKGRFTISADTSKNTAYLQMNSLRAEDTAVYYCARSGGEFYITSYYGMDYWGQGTLVTVSS VL: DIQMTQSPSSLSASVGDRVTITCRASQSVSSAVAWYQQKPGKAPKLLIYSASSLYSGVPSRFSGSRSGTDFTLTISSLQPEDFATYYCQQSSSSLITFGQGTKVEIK and give its measured Ratio pH 5.5/7.4 of off rate.
Reply | 7.1

Ask | Consider the binder X2 Fab (Fab, V domains shown, Fab format) VH: EVQLVESGGGLVQPGGSLRLSCAASGFTVSSSSIHWVRQAPGKGLEWVASISSSYGSTSYADSVKGRFTISADTSKNTAYLQMNSLRAEDTAVYYCARSEGDRYVSGYMGMDYWGQGTLVTVSS VL: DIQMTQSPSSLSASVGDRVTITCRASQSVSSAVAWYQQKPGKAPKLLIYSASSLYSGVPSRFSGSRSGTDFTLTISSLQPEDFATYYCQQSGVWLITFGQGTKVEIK and give its measured Ratio pH 5.5/7.4 of off rate.
Reply | 1

Ask | Consider the binder X17 Fab (Fab, V domains shown, Fab format) VH: EVQLVESGGGLVQPGGSLRLSCAASGFTISYSSIHWVRQAPGKGLEWVASIYSSSGSTYYADSVKGRFTISADTSKNTAYLQMNSLRAEDTAVYYCARGDHGYYVFGYLGMDYWGQGTLVTVSS VL: DIQMTQSPSSLSASVGDRVTITCRASQSVSSAVAWYQQKPGKAPKLLIYSASSLYSGVPSRFSGSRSGTDFTLTISSLQPEDFATYYCQQSYKPGALITFGQGTKVEIK and give its measured Ratio pH 5.5/7.4 of off rate.
Reply | 1.7
